experiment: photoluminescence quantum yield (fraction); solvent given as SMILES; details: in ClCCl
Lab note: cut-off is 0.4. Strictly less in photoluminescence quantum yield is class 1. Exactly 0.4 or more is class 0.

>>> class("N#Cc1ccc(-c2cn3ccc[n+]3[n-]2)cc1")
"class 1"
>>> class("CCOCCOCCOC(=O)/C=C/C1=CC2=C(c3c(C)cc(C)cc3C)c3cccn3[B-](F)(F)[N+]2=C1")
"class 1"
>>> class("c1ccc(C2=Nc3cccc4[n+]3[B-](c3ccccc3)(N2)NC(c2ccccc2)=N4)cc1")
"class 1"
>>> class("CC1=NN(c2cccc3ccccc23)[B-](F)(F)[n+]2ccccc21")
"class 1"
>>> class("C1=Cc2nc1c(-c1cccs1)c1ccc([nH]1)c(-c1cccs1)c1nc(c(-c3cccs3)c3ccc([nH]3)c2-c2cccs2)C=C1")
"class 1"
>>> class("CC1=CC(C)=[N+]2C1=Cc1c(C)c(C3=C(C)C4=Cc5c(C)cc(C)n5[B-](F)(F)[N+]4=C3C)c(C)n1[B-]2(F)F")
"class 0"
>>> class("Cc1cc(C)c(-c2c3ccccc3c3ccc4cc5c(-c6c(C)cc(C)cc6C)c6ccccc6c6ccc7cc2c3c4c7c56)c(C)c1")
"class 1"
>>> class("c1cc2ccc3ccc(-n4c5ccccc5c5ccccc54)c4ccc(c1)c2c34")
"class 0"
>>> class("C(#Cc1c2ccccc2c(-c2ccccc2)c2cc3ccccc3cc12)c1ccccc1")
"class 0"
>>> class("Fc1ccc(C#Cc2c(C#Cc3ccc(F)cc3)c(C#Cc3ccc(F)cc3)c(C#Cc3ccc(F)cc3)c(C#Cc3ccc(F)cc3)c2C#Cc2ccc(F)cc2)cc1")
"class 1"
>>> class("COc1ccc(-c2cnc(/C=C/c3ccc(C#N)cc3)o2)cc1OC")
"class 1"
>>> class("CCCCCCc1ccc2c3c(ccc2c1)O[B-](F)(F)[N+](c1ccc([N+]2=Cc4c(ccc5cc(CCCCCC)ccc45)O[B-]2(F)F)cc1)=C3")
"class 0"
>>> class("Fc1ccc(-c2ccc(-c3cc(-c4ccccn4)nc(-c4ccccn4)c3)cc2)c(F)c1")
"class 1"
>>> class("CCCc1ccc(C#Cc2cc(C#Cc3ccc(CCC)cc3)c3ccc4c(C#Cc5ccc(N(C)C)cc5)cc(C#Cc5ccc(CCC)cc5)c5ccc2c3c54)cc1")
"class 0"
>>> class("COc1ccc(N(c2ccc(OC)cc2)c2cc3ccc4cc(B(c5c(C)cc(C)cc5C)c5c(C)cc(C)cc5C)cc5ccc(c2)c3c45)cc1")
"class 0"
>>> class("O=C(c1ccc2c3c(cccc13)-c1cccc3c1C2CC=C3)c1c(CCc2ccccc2)c2ccc3cccc4c5cccc6ccc1c(c65)c2c34 (configuration not stated)")
"class 1"
>>> class("COc1ccc(-c2[nH]c(=O)n3c2-c2ccccc2C3=O)c(OC)c1")
"class 0"

====

test: photoluminescence quantum yield (fraction); solvent given as SMILES; settings: in ClCCl
readout_type: photoluminescence quantum yield

>>> readout_value("CNc1ncc2nc(C(=O)OC)n(Cc3ccccc3)c2n1")
0.65
>>> readout_value("c1ccc2c(c1)-c1sc3ccccc3c1C21c2ccccc2-c2sc3ccccc3c21")
0.06
>>> readout_value("CCCCCCCCOc1cc(/C=C/c2ccncc2)c(OCCCCCCCC)cc1/C=C/c1ccncc1")
0.634
>>> readout_value("CCCCC(CC)Cn1c2cc(C#N)ccc2c2ccc(C#Cc3ccc4ccc5cccc6ccc3c4c56)cc21 (stereo unspecified)")
0.59
>>> readout_value("COC(=O)c1nc2c(N(C)C)nc(N)nc2n1Cc1ccccc1")
0.95
>>> readout_value("COc1cc(/C=C/c2nc3ccccc3s2)c(OC)cc1/C=C/c1nc(C)nc(/C=C/c2cc(OC)c(/C=C/c3nc4ccccc4s3)cc2OC)n1")
0.46

====

experiment: photoluminescence quantum yield (fraction); solvent given as SMILES; details: in ClC(Cl)Cl
Could you mark each record yes (1) if its photoluminescence quantum yield falls strictly under 0.7, and no (0) if it equals or exceeds it?

>>> class("CC(C)(C)C1Nc2ccccc2C(=O)N1Cc1ccccc1 (stereo not given)")
"yes (1)"
>>> class("C(#Cc1ccccc1)c1ccccc1")
"yes (1)"
>>> class("CN(C)c1ccc2cc(C3=[O+][B-](F)(F)OC(c4ccc(C#N)cc4)=C3)ccc2c1")
"no (0)"
>>> class("CN(C)c1ccc2nc(-c3ccc(C(=O)Nc4ccccc4)cc3)sc2c1")
"no (0)"

====

assay: photoluminescence quantum yield (fraction); solvent given as SMILES; details: in C1CCOC1
Rule: photoluminescence quantum yield under 0.6 gives criterion not met, otherwise criterion met.

>>> class("COc1ccc(/C=C/C(F)(F)F)c(N)c1")
"criterion not met"
>>> class("F[B-]1(F)n2c(c3cccc4cccc2c43)=Nc2cccc[n+]21")
"criterion met"
>>> class("COc1ccc(C2=CC(c3ccc4cc(N(C)C)ccc4c3)=[O+][B-](F)(F)O2)cc1")
"criterion not met"
>>> class("c1cc2ccc1-c1ccc(cc1)-c1ccc([se]1)-c1ccc(cc1)-c1ccc(cc1)-c1ccc([se]1)-c1ccc(cc1)-c1ccc(cc1)-c1ccc([se]1)-c1ccc(cc1)-c1ccc(cc1)-c1ccc-2[se]1")
"criterion not met"
>>> class("N#Cc1cc2ccc(O)cc2oc1=O")
"criterion not met"
>>> class("CN(C)c1ccc(C2=[N+]3C(=Nc4c(-c5ccc(O)cc5)cc(-c5ccc(N(C)C)cc5)n4[B-]3(F)F)C(c3ccc(O)cc3)=C2)cc1")
"criterion not met"
>>> class("C#CC1CN2CCC1CC2[C@@H](O)c1ccnc2ccc(OC)cc12 (stereo partly drawn)")
"criterion not met"
>>> class("O=P1(c2ccccc2)C(c2ccc(C(F)(F)F)cc2)=Cc2ccccc21 (stereo not drawn)")
"criterion met"
>>> class("F[B-]1(F)n2c(c(-c3ccccc3)c(-c3ccccc3)c2-c2ccccc2)C=C2C(c3ccccc3)=C(c3ccccc3)C(c3ccccc3)=[N+]21")
"criterion met"
>>> class("F[B-]1(F)OC(c2ccc(C(F)(F)F)cc2)=Cc2cc(Cl)nc[n+]21")
"criterion not met"
>>> class("COc1cc(OC)c(C2=C3C(C)=CC(C)=[N+]3[B-](F)(F)n3c(C)cc(C)c32)c(OC)c1")
"criterion met"
>>> class("CCOC(=O)C1=CNC=C(C(=O)OCC)C1c1ccccc1")
"criterion met"

====

assay: photoluminescence quantum yield (fraction); solvent given as SMILES; details: in CCO
As shown below, each of these compounds has a reported photoluminescence quantum yield value.
readout_type: photoluminescence quantum yield

>>> readout_value("COc1ccc(-c2nc(N)nc(C#N)c2C#N)cc1OC")
0.0105
>>> readout_value("ClC(Cl)=C1c2ccccc2C(C2(Cl)c3ccccc3C(=C(Cl)Cl)c3ccccc32)c2ccccc21 (stereo not drawn)")
0.17
>>> readout_value("Cc1c2ccccc2c(C2=C3C=CC=[N+]3[B-](F)(F)n3cccc32)c2ccccc12")
0.002
>>> readout_value("CCCCCCC(CCCCCC)n1c(=O)c2c3ccc4cccc5c6cccc7ccc(c2c1=O)c(c76)c3c45")
0.3
>>> readout_value("CN(C)c1ccc(/C=C/c2nc3ccccc3s2)cc1")
0.0045
>>> readout_value("Cc1ccc(C2CC(c3ccc(O)cc3)=NN2c2ccc(S(N)(=O)=O)cc2)cc1 (stereo not drawn)")
0.43
>>> readout_value("CCC1=C(C)C2=C(c3c4ccccc4cc4ccccc34)c3c(C)c(CC)c(C)n3[B-](F)(F)[N+]2=C1C")
0.778
>>> readout_value("c1ccc2c(c1)[nH]c1ccccc12")
0.44
>>> readout_value("c1ccc(C2c3ccccc3-c3ccccc32)cc1")
0.19
>>> readout_value("CCCCN1C(=O)C(=C/C=C/C=C2N(CCCC)c3ccccc3N2CCCC)C(=O)N(CCCC)C1=S")
0.013
>>> readout_value("CCOc1ccc2c(-c3nc(-c4cccc(C)c4)no3)cc(=O)oc2c1")
0.68
>>> readout_value("Cn1ccc(-c2nc3ccccc3nc2/C=C/N2CCCC2)c1")
0.022
>>> readout_value("CC(C)(C)NC1=C2C=CC=[N+]2[B-](F)(F)n2cccc21")
0.002

====

test: photoluminescence quantum yield (fraction); solvent given as SMILES; details: in CN(C)C=O
readout_type: photoluminescence quantum yield

>>> readout_value("O=C1/C(=C\\c2ccc3oc4ccccc4c3c2)S(=O)(=O)c2ccccc21")
0.192
>>> readout_value("CCN(CC)c1ccc2c(c1)oc(=O)c1c(C)nc3c(cnn3-c3ccccc3)c12")
0.37
>>> readout_value("CN(C)c1c2ccccc2cc2ccccc12")
0.016
>>> readout_value("CCCCCCCCCCCCCCCCCCN1C(=O)c2ccc3c4ccc5c6c(ccc(c7ccc(c2c37)C1=O)c64)C(=O)NC5=O")
0.37
>>> readout_value("Nc1ccc2c(c1)C(=O)NC2=O")
0.91
>>> readout_value("O=C([O-])c1ccccc1C1=c2cc3c4c(c2Oc2c1cc1c5c2CCCN5CCC1)CCC[N+]=4CCC3")
1
>>> readout_value("CN(C)c1ccc(/C=C/c2ccccn2)cc1")
0.051
